// pEC50 lookup, one value per entry
Test system: Vaccinia virus
Test: Antiviral activity against Vaccinia virus infected African green monkey Vero76 cells assessed as reduction of virus-induced plaque reduction after 3 days by MTT assay
Type: functional, organism-based
Settings: Orthopoxvirus vaccinia, Vero 76, 72 h
pEC50: −log10 of the molar value.

Known results for compounds:
{"compound": "COc1c(C)c2c(c(O)c1C/C=C(\\C)CCC(=O)O)C(=O)OC2 [MYCOPHENOLIC ACID]", "experimental_value": 5.74}
{"compound": "COc1ccccc1N1CCN(CC(O)CN2C(=O)C3=C(SCCS3)C2=O)CC1 (stereo not drawn)", "experimental_value": "< 4.00"}
{"compound": "O=C1C2=C(SCCS2)C(=O)N1CCCCN1CCN(Cc2ccccc2)CC1", "experimental_value": "< 4.00"}
{"compound": "O=C1C2=C(SCCS2)C(=O)N1CCCN1CCN(c2ccc(F)cc2)CC1", "experimental_value": "< 4.02"}
{"compound": "O=C1C2=C(SCCS2)C(=O)N1CC(O)CN1CCN(c2ccc(F)cc2)CC1 (stereo not drawn)", "experimental_value": "< 4.00"}
{"compound": "O=C1C2=C(SCCS2)C(=O)N1CCCCN1CCN(c2ccccc2)CC1", "experimental_value": "< 4.00"}
{"compound": "O=C1C2=C(SCCS2)C(=O)N1CCCCN1CCN(c2ccc(F)cc2)CC1", "experimental_value": "< 4.00"}

Could you now look at the following compound, please?
Problem: Which pEC50 is reported for this compound? `O=C1C2=C(SCCS2)C(=O)N1CCCCN1CCN(c2ccccn2)CC1`
Result: < 4.00
